Biological target: huCTLA4 (Homo sapiens, UniProt P16410)
Sequence (P16410 36-223): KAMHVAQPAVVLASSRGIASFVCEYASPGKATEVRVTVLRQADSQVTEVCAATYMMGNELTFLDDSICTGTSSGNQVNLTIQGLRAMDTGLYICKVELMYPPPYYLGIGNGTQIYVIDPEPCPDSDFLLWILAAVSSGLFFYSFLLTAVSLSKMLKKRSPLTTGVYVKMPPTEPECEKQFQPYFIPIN
Experiment: Flow binding to CHO cells stably expressing CTLA4
Design: huCTLA4 and huPD-L1, full-length mammalian surface expression constructs were generated; expressed in transfected cells; host or cells: CHO cells, lentiviral transduction, sorted to >98% purity
Details: Table E23; CD80 IgV-Fc (inert) at 33.3 nM; CHO cells stably expressing CTLA4

[
  {
    "MOLECULE": "H18V/A26P/E35D/M47L/V68M/A71G (protein, UniProt P33681 35-288, looked up, variant H18V A26P E35D M47L V68M A71G) T-lymphocyte activation …: VIHVTKEVKEVATLSCGVNVSVEELPQTRIYWQKDKKMVLTMMSGDLNIWPEYKNRTIFDITNNLSIMILGLRPSDEGTYECVVLKYEKDAFKREHLAEVTLSVKADFPTPSISDFEIPTSNIRRIICSTSGGFPEPHLSWLENGEELNAINTTVSQDPETELYAVSSKLDFNMTTNHSFMCLIKYGHLRVNQTFNWNTTKQEHFPDNLLPSWAITLISVNGIFVICCLTYCFAPRCRERRRNERLRRESVRPV",
    "CTLA4 MFI at 33.3 nM": 16192
  },
  {
    "MOLECULE": "H18T/A26N/E35D/M47L/V68M/A71G (protein, UniProt P33681 35-288, looked up, variant H18T A26N E35D M47L V68M A71G, Fc fusion) T-lymphocyte activation …: VIHVTKEVKEVATLSCGTNVSVEELNQTRIYWQKDKKMVLTMMSGDLNIWPEYKNRTIFDITNNLSIMILGLRPSDEGTYECVVLKYEKDAFKREHLAEVTLSVKADFPTPSISDFEIPTSNIRRIICSTSGGFPEPHLSWLENGEELNAINTTVSQDPETELYAVSSKLDFNMTTNHSFMCLIKYGHLRVNQTFNWNTTKQEHFPDNLLPSWAITLISVNGIFVICCLTYCFAPRCRERRRNERLRRESVRPV",
    "CTLA4 MFI at 33.3 nM": 20911
  }
]
